The origin of these recorded values is ChEMBL document CHEMBL3734673.

- Tested on: Beta-galactosidase (Homo sapiens), P16278 [R201C]
- Sequence (P16278 whole entry R201C): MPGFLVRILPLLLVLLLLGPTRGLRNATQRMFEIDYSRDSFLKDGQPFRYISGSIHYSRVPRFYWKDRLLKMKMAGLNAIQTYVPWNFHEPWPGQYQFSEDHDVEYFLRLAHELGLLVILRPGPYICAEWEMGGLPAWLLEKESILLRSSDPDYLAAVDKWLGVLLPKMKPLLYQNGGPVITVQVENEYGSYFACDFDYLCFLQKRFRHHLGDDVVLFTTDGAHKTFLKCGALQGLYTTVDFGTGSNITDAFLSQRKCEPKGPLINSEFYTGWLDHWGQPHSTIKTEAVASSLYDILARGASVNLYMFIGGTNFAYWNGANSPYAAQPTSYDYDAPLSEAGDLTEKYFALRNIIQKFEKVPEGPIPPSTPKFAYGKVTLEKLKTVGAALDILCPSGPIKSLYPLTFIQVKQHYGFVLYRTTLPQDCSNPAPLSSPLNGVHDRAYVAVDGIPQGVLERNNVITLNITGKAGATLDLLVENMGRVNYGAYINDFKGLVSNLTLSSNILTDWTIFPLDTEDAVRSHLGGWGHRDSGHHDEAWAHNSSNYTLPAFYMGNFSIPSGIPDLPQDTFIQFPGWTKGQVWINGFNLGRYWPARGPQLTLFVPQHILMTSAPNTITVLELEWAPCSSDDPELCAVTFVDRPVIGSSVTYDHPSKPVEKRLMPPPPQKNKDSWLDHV
- assay-text: Activation of human beta-galactosidase R201C mutant expressed in mouse fibroblasts using 4-methylumbelliferone -conugated beta-D-galactoside as substrate at 20 uM preincubated for 48 hrs followed by substrate addition measured after 30 mins by fluorescence analysis relative to control
Assign t to entries whose fold change (FC) meets or exceeds 4; assign f to the rest.

chem-smiles: CCCCCCCCN[C@@H]1C=C(C)[C@H](O)[C@H](O)[C@H]1O
group-label: t
--
chem-smiles: CCCCCCCCCCN[C@@H]1C=C[C@H](O)[C@H](O)[C@H]1O.Cl
group-label: f
--
chem-smiles: Cl.O[C@@H]1[C@@H](O)[C@H](NCc2ccccc2)C=C[C@@H]1O
group-label: f
--
chem-smiles: CCCCCCCCN[C@@H]1C=C(CO)[C@H](O)[C@H](O)[C@H]1O.Cl
group-label: f
--
chem-smiles: CCC(CC)N[C@@H]1C=C[C@H](O)[C@H](O)[C@H]1O.Cl
group-label: f
--
chem-smiles: Cl.O[C@@H]1[C@@H](O)[C@H](NCC2CCCCC2)C=C[C@@H]1O
group-label: t
--
chem-smiles: CCCCN[C@@H]1C=C[C@H](O)[C@H](O)[C@H]1O.Cl
group-label: f
--
chem-smiles: CCC(CC)CN[C@@H]1C=C[C@H](O)[C@H](O)[C@H]1O.Cl
group-label: t
--
chem-smiles: CC(C)CCN[C@@H]1C=C[C@H](O)[C@H](O)[C@H]1O.Cl
group-label: t
--
chem-smiles: Cl.OCCCN[C@@H]1C=C[C@H](O)[C@H](O)[C@H]1O
group-label: f

====

- assay-text: Cytotoxicity against human fibroblasts at 200 uM by LDH assay
- Type: cell-based
- assay-context: fibroblast
A collection of molecules and their measured Activity
test-readout: Activity (%)

chem-smiles: Cl.O[C@@H]1[C@@H](O)[C@H](NCC2CCCCC2)C=C[C@@H]1O
value-units: %
limit-qualifier: =
val: 3.8

chem-smiles: CCC(CC)N[C@@H]1C=C[C@H](O)[C@H](O)[C@H]1O.Cl
value-units: %
limit-qualifier: <
val: 10

chem-smiles: CCCCCCCCCCN[C@@H]1C=C[C@H](O)[C@H](O)[C@H]1O.Cl
value-units: %
limit-qualifier: =
val: 54

chem-smiles: CCCCCN[C@@H]1C=C[C@H](O)[C@H](O)[C@H]1O.Cl
value-units: %
limit-qualifier: <
val: 10

chem-smiles: Cl.O[C@@H]1[C@@H](O)[C@H](NCc2ccccc2)C=C[C@@H]1O
value-units: %
limit-qualifier: <
val: 10

chem-smiles: CCCCCCN[C@@H]1C=C[C@H](O)[C@H](O)[C@H]1O.Cl
value-units: %
limit-qualifier: <
val: 10

chem-smiles: CCCCCCCCN[C@@H]1C=C[C@H](O)[C@H](O)[C@H]1O.Cl
value-units: %
limit-qualifier: =
val: 25

chem-smiles: CCC(CC)CN[C@@H]1C=C[C@H](O)[C@H](O)[C@H]1O.Cl
value-units: %
limit-qualifier: <
val: 10

chem-smiles: CCCCCCCCN[C@@H]1C=C(CO)[C@H](O)[C@H](O)[C@H]1O.Cl
value-units: %
limit-qualifier: =
val: 7.5

chem-smiles: Cl.OCCCN[C@@H]1C=C[C@H](O)[C@H](O)[C@H]1O
value-units: %
limit-qualifier: <
val: 10
